Source of measurements: patent US20250304620A1

system: Candida glabrata ATCC 15126; assay type: cell-based
Non-standard residues stand in square brackets, D forms with d. Residues, ends and D or L forms follow the SMILES beside them. dPhe(4-Br) = N[C@H](Cc1ccc(Br)cc1)C(=O)O; d2Nal = N[C@H](Cc1ccc2ccccc2c1)C(=O)O
Each record here notes measured MIC Candida glabrata ATCC 15126.

[
  {
    "Molecule": "CC(=O)N[C@H](CCCNC(=N)N)C(=O)N[C@H](CCCCN)C(=O)N[C@H](CC(C)C)C(=O)N[C@H](CC(C)C)C(=O)N[C@H](Cc1ccccc1)C(=O)N[C@H](CCCNC(=N)N)C(=O)N[C@H](CC(C)C)C(=O)N[C@H](CCCCN)C(=O)N[C@H](Cc1ccc2ccccc2c1)C(=O)N[C@H](CCCNC(=N)N)C(=O)N[C@H](CCCCN)C(N)=O [LV-3] (Ac-[dR][dK][dL][dL][dF][dR][dL][dK][d2Nal][dR][dK]-NH2)",
    "Study System": "Candida glabrata ATCC 15126",
    "Unit": "µg/mL",
    "MIC Candida glabrata ATCC 15126": 16
  },
  {
    "Molecule": "CC(=O)N[C@H](CCCNC(=N)N)C(=O)N[C@H](CCCCN)C(=O)N[C@H](CC(C)C)C(=O)N[C@H](CC(C)C)C(=O)N[C@H](Cc1ccc2ccccc2c1)C(=O)N[C@H](CCCNC(=N)N)C(=O)N[C@H](CC(C)C)C(=O)N[C@H](CCCCN)C(=O)N[C@H](Cc1ccccc1)C(=O)N[C@H](CCCNC(=N)N)C(=O)N[C@H](CCCCN)C(N)=O [LV-4] (Ac-[dR][dK][dL][dL][d2Nal][dR][dL][dK][dF][dR][dK]-NH2)",
    "Study System": "Candida glabrata ATCC 15126",
    "Unit": "µg/mL",
    "MIC Candida glabrata ATCC 15126": 8
  },
  {
    "Molecule": "CC(=O)N[C@H](CCCCN)C(=O)N[C@H](CCCCN)C(=O)N[C@H](CC(C)C)C(=O)N[C@H](CC(C)C)C(=O)N[C@H](Cc1ccc(Br)cc1)C(=O)N[C@H](CCCNC(=N)N)C(=O)N[C@H](CC(C)C)C(=O)N[C@H](CCCCN)C(=O)N[C@H](Cc1ccc(Br)cc1)C(=O)N[C@H](CCCNC(=N)N)C(=O)N[C@H](CCCCN)C(N)=O [LV-10] (Ac-[dK][dK][dL][dL][dPhe(4-Br)][dR][dL][dK][dPhe(4-Br)][dR][dK]-NH2)",
    "Study System": "Candida glabrata ATCC 15126",
    "Unit": "µg/mL",
    "MIC Candida glabrata ATCC 15126": 8
  }
]

---

test system: Pseudomonas aeruginosa ATCC 27853; assay: Injectable formulations on mice infected with peritonitis; assay type: in vivo, ICR mice; conditions: 5 mg/kg via tail vein, twice a day for 3 days, n = 10
Non-standard residues stand in square brackets, D forms with d. Residues, ends and D or L forms follow the SMILES beside them. dPhe(3,4-F2) = N[C@H](Cc1ccc(F)c(F)c1)C(=O)O
Each entry below carries its reported Number of mice that died on each day after infection: day 5.
Assay Readout: Number of mice that died on each day after infection: day 5 (Mouse)

[
  {
    "Compound": "CC(=O)N[C@H](CCCNC(=N)N)C(=O)N[C@H](CCCCN)C(=O)N[C@H](CC(C)C)C(=O)N[C@H](CC(C)C)C(=O)N[C@H](Cc1ccc(F)c(F)c1)C(=O)N[C@H](CCCCN)C(=O)N[C@H](CC(C)C)C(=O)N[C@H](CCCCN)C(=O)N[C@H](Cc1ccc(F)c(F)c1)C(=O)N[C@H](CCCCN)C(=O)N[C@H](CCCNC(=N)N)C(N)=O [LV-6] (Ac-[dR][dK][dL][dL][dPhe(3,4-F2)][dK][dL][dK][dPhe(3,4-F2)][dK][dR]-NH2)",
    "Unit": "Mouse",
    "Result": 0
  },
  {
    "Compound": "CC(=O)N[C@H](CCCCN)C(=O)N[C@H](CCCCN)C(=O)N[C@H](CC(C)C)C(=O)N[C@H](CC(C)C)C(=O)N[C@H](Cc1ccc(F)c(F)c1)C(=O)N[C@H](CCCNC(=N)N)C(=O)N[C@H](CC(C)C)C(=O)N[C@H](CCCCN)C(=O)N[C@H](Cc1ccc(F)c(F)c1)C(=O)N[C@H](CCCNC(=N)N)C(=O)N[C@H](CCCCN)C(N)=O [LV-25] (Ac-[dK][dK][dL][dL][dPhe(3,4-F2)][dR][dL][dK][dPhe(3,4-F2)][dR][dK]-NH2)",
    "Unit": "Mouse",
    "Result": 0
  },
  {
    "Compound": "C[C@H]1COc2c(N3CCN(C)CC3)c(F)cc3c(=O)c(C(=O)O)cn1c23 [Levofloxacin, reference compound]",
    "Unit": "Mouse",
    "Result": 1
  }
]
